Below is a list of entries, each paired with its recorded Kd value.
target: T1, pig serum albumin (pig, UniProt P08835 25-607); assay: SPR (Biacore 8K), albumin immobilized on CM5 chip, 25 C, 1:1 kinetic fit
T1 construct: Bought protein, immobilized on a CM5 chip by amine coupling; also called Pig SA
Provide only the numeric value, understood in nM.

RLN Analog 13 (other, Single-chain fusion: VHH - (G4Q)5 L1 - RLN2 A chain (desA1-4) - L2 - RLN2 B chain (desB1)) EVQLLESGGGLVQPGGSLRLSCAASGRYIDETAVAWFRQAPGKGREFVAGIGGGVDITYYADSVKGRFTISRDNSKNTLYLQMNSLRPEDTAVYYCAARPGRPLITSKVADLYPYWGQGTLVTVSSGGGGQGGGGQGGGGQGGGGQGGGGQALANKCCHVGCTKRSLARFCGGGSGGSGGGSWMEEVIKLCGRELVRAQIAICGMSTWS :: 5
RLN Analog 3 (other, Single-chain fusion: VHH - (G4Q)5 L1 - RLN2 B chain (desB1) - L2 - RLN2 A chain) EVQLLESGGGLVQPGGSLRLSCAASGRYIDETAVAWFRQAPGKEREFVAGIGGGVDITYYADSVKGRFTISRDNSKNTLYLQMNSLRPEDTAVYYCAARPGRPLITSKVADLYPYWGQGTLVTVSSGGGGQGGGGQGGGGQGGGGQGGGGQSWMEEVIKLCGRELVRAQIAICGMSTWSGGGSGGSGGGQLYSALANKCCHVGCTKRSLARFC :: 4.8
RLN Analog 7 (other, Single-chain fusion: VHH - (G4Q)5 L1 - RLN2 B chain (desB1) - L2 - RLN2 A chain) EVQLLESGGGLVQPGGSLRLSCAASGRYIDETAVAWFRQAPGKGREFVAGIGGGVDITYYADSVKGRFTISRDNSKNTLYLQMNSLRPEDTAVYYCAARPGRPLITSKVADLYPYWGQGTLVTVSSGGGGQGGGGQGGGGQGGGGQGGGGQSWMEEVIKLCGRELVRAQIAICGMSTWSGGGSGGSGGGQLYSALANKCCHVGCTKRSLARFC :: 3.7
RLN Analog 8 (other, Single-chain fusion: VHH - (PGPQ)8 L1 - RLN2 B chain (desB1) - L2 - RLN2 A chain) EVQLLESGGGLVQPGGSLRLSCAASGRYIDETAVAWFRQAPGKGREFVAGIGGGVDITYYADSVKGRFTISRDNSKNTLYLQMNSLRPEDTAVYYCAARPGRPLITSKVADLYPYWGQGTLVTVSSPGPQPGPQPGPQPGPQPGPQPGPQPGPQPGPQSWMEEVIKLCGRELVRAQIAICGMSTWSGGGSGGSGGGQLYSALANKCCHVGCTKRSLARFC :: 4.1
RLN Analog 14 (other, Single-chain fusion: VHH - (PGPQ)8 L1 - RLN2 A chain (desA1-4) - L2 - RLN2 B chain (desB1)) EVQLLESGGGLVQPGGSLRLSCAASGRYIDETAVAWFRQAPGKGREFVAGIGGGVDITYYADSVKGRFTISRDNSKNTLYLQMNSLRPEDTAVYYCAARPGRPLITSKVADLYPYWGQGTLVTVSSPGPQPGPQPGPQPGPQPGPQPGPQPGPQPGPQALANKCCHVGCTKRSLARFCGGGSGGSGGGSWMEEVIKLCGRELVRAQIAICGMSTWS :: 6

Please find the next binder below.
Given the binder RLN Analog 1 (other) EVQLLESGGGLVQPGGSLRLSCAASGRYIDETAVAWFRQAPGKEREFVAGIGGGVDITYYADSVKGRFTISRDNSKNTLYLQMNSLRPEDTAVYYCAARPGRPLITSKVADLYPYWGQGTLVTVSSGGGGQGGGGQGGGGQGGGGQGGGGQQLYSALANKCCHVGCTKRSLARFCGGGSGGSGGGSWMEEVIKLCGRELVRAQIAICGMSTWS , write its reported Kd.
7.1
